Origin of values: patent US6737383B1

Exercise: for every item that follows, state its recorded Cocklebur plant response rating.
# Tested on: cocklebur
# assay notes: Test B pre/postemergence cocklebur
# Format: in vivo, Xanthium strumarium
# particulars: Preemergence, Rate 62 g/ha; scale of 0 to 10 where 0 is no effect and 10 is complete control
Numbers only.

Please report Cocklebur plant response rating for every entry that follows.
1. COC(CCl)n1c(=O)on(C(=O)N(c2ccccc2)C(C)C)c1=O (stereo not drawn)
2. CCn1ncc(Cn2c(=O)on(C(=O)N(c3ccc(Cl)cc3)C(C)C)c2=O)c1Cl
3. Cc1ccccc1-n1c(=O)on(C(=O)N(c2ccc3ccccc3c2)C(C)C)c1=O

Key:
1. 0
2. 0
3. 0

* * *

# Test system: bamyardgrass
# assay notes: Test B flood test barnyardgrass
# Type: in vivo, Echinochloa crus-galli
# particulars: Rate 500 g/ha; Pre-emergence; flood test species; scale 0 to 10 (0 no effect, 10 complete control)
Exercise: for every item that follows, state its recorded Barnyardgrass plant response rating.

COCCOCn1c(=O)on(C(=O)N(c2ccc(F)cc2)C(C)C)c1=O ... 3
COC(C)n1c(=O)on(C(=O)N(c2ccc(F)cc2)C(C)C)c1=O (stereo not drawn) ... 0
CC(C)N(C(=O)n1oc(=O)n(C(C)CCl)c1=O)c1ccc(Cl)cc1 (stereo not drawn) ... 0
Cc1nc(C)c(C(C)n2c(=O)on(C(=O)N(c3ccc(F)cc3F)C(C)C)c2=O)s1 (stereo not drawn) ... 0

Please report Barnyardgrass plant response rating for every entry that follows.
1. CC(C)N(C(=O)n1oc(=O)n(-c2ccc3ccccc3c2)c1=O)c1ccccc1
2. CC(C)N(C(=O)n1oc(=O)n(C)c1=O)c1ccccc1

Key:
1. 0
2. 3

Please report Barnyardgrass plant response rating for every entry that follows.
1. CC(C)N(C(=O)n1oc(=O)[nH]c1=O)c1ccc(F)cc1F
2. CC(C)N(C(=O)n1oc(=O)n(C(C)C#N)c1=O)c1ccc(Cl)cc1 (stereo not drawn)
3. CC(C)N(C(=O)n1oc(=O)n(CCC2CCCCC2)c1=O)c1ccc(F)cc1

Key:
[0, 0, 0]

* * *

# System: rape
# assay notes: Test B pre/postemergence rape
# Format: in vivo, Brassica napus
# particulars: Rate 250 g/ha, Postemergence; scale 0 to 10, 0 is no effect, 10 is complete control
recorded metric: Plant response rating, Rape
Answers are plain numbers.

The examples below pair each entry with its known result.
C=C(C)Cn1c(=O)on(C(=O)N(c2ccc(F)cc2)C(C)C)c1=O [Compound 139] ... 2
CC1CCCCC1n1c(=O)on(C(=O)N(c2ccc(F)cc2)C(C)C)c1=O (centres unmarked) [Compound 161] ... 0
CC(C)N(C(=O)n1oc(=O)n(-c2nc(Cl)sc2Cl)c1=O)c1ccc(F)cc1 [Compound 160] ... 0
CC(C)N(C(=O)n1oc(=O)n([C@H](C)c2ccccc2)c1=O)c1ccc(Cl)cc1 [Compound 178] ... 0

Exercise: Record request: Plant response rating, Rape value, item CCOC(=O)Cn1c(=O)on(C(=O)N(c2ccc(F)cc2)C(C)C)c1=O [Compound 128]
Key: 0

* * *

# System: bedstraw
# assay notes: Test B pre/postemergence bedstraw
# Type: in vivo, Galium aparine
# particulars: Rate 250 g/ha; Postemergence
recorded metric: Plant response rating (0 to 10; 0 is no effect, 10 is complete control), Bedstraw
Answers are plain numbers.

Cc1ccccc1-n1c(=O)on(C(=O)N(c2ccc(-c3ccccc3)cc2)C(C)C)c1=O ... 0
COCCOCn1c(=O)on(C(=O)N(c2ccc(F)cc2)C(C)C)c1=O ... 8
Cc1ccccc1-n1c(=O)on(C(=O)N(c2ccccc2F)C(C)C)c1=O ... 6

Now for a further compound.
Exercise: Record request: Plant response rating (0 to 10; 0 is no effect, 10 is complete control), Bedstraw value, item "Cc1ccccc1-n1c(=O)on(C(=O)N(c2ccc(S(C)(=O)=O)cc2)C(C)C)c1=O"
Key: 0
